- SYSTEM: SpSla1-D1-D2
- TEST_PROTOCOL: SPOT peptide array binding signal intensity (averaged, normalized) (arbitrary units (background-subtracted, floor 0; scale differs between SH3 domains)); higher = stronger binding of the SH3 domain to the peptide
Could you label it met if measured SPOT peptide array binding signal intensity is 4 or higher, and not met otherwise?

RRSKSLPTTPGIRSG met
LASNSPPVYPKRIRH not met
EEEEEHPPLPARRKS not met
ATNVPVAPPPPPASL not met
VQQDSLPKLPFRSWG not met
TPTSGPPLLPPRNTM not met

query: Check the entry `SKAKRPKFLLDLQIK` : does SPOT peptide array binding signal intensity equal or exceed 4?
result: not met

query: Check the entry `QQEQNTPPLPPKPKS` : does SPOT peptide array binding signal intensity equal or exceed 4?
result: not met

query: Check the entry `HAPPLPPTAPPPPSL` : does SPOT peptide array binding signal intensity equal or exceed 4?
result: met
